measurement.target: Histone deacetylase 3/Nuclear receptor corepressor 1 (HDAC3/NCoR1) (Homo sapiens)
assay.method.text: Inhibition of HDAC3/NCOR1 (unknown origin) using Boc-Lys(Ac) as substrate by fluorogenic assay
pIC50: −log10 of the molar value.
measure.name: pIC50

a = C[C@H](CN1CCC[C@@H]1C)NC(=O)c1ccc(-c2noc(C(F)(F)F)n2)cc1
b = O=C(NCCN1CCCC1)c1ccc(-c2noc(C(F)(F)F)n2)cc1
pIC50 comparison. Which is larger, a or b ? Please reply using the label of the selected record.
b

---

measurement.target: UniProt:Q12809
Sequence (Q12809 whole entry): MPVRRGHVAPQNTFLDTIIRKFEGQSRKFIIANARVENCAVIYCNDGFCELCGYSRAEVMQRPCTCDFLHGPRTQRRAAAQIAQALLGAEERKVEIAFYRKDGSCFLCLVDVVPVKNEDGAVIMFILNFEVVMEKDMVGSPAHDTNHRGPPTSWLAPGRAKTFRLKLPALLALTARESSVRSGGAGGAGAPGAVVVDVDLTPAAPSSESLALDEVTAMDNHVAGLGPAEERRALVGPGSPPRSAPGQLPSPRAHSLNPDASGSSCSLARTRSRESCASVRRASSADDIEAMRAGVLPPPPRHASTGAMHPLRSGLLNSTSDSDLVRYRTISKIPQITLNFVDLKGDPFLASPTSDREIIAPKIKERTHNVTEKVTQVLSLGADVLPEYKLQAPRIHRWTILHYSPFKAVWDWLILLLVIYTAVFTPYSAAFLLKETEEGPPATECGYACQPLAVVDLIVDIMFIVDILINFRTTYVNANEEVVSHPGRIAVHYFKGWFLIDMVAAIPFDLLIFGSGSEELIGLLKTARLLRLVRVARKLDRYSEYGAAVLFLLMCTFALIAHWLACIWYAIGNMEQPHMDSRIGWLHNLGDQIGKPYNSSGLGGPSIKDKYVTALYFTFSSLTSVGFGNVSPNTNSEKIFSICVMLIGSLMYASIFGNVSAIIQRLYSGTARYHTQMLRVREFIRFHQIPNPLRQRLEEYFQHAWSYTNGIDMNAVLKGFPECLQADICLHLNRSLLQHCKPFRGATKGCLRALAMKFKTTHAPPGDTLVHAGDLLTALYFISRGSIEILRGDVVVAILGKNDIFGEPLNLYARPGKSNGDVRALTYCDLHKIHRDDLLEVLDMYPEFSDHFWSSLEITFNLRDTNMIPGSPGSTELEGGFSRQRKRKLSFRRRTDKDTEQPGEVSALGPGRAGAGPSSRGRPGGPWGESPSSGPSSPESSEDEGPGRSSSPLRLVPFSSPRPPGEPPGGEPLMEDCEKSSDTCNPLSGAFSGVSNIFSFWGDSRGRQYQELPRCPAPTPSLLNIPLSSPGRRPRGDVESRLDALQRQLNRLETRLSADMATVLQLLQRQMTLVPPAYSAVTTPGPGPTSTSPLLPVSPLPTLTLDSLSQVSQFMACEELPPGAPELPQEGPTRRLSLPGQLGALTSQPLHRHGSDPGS
assay.method.text: Inhibition of human ERG
measure.name: Kd (µM)
Give just the numeric value; µM need not be written.

For UniProt:Q12809, provide Kd of C[C@H](CN1CCC[C@@H]1C)NC(=O)c1ccc(-c2noc(C(F)(F)F)n2)cc1 please.
3.9

Where do the numbers come from? From ChEMBL document CHEMBL4680373.
